# PROTOCOL SUMMARY: chemical genetic growth profiling, strain panel (AID 1159580);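 note: tested at 20 µM; growth read once vehicle control cultures reached saturation at 30 °C; 1 = growth at the plate median or of vehicle wells; lower values mean less growth of the strain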
# TEST SETTINGS: S. cerevisiae deletion strains, growth OD, locus YBR009C, strain hhf1
The campaign covered roughly 5,500 compounds. About 2,000 (36%) were called active. Inconclusive results (about 18%) are left out. Cut-off read from the data, not from the text of the source: active = normalized growth mostly below about 0.91 (no sharp cut-off); inconclusive = no clear call, values can overlap the other calls; inactive = mostly above about 0.92. Some of the results follow.
Would you mind answering with one of these outcomes? class 1 = active, class 0 = inactive

Solved cases (3 shown):
Cc1cc(O)c2c(c1)C(=O)c1cccc(O)c1C2=O: class 0
O=C1c2cccc(O)c2C(=O)c2c(O)cccc21: class 1
O=C1C=C(O)c2ccccc2C1=O: class 0

What is the recorded call for this compound in the test? COc1cc2c(cc1OC)C(C)NCC2 (centres undefined)
class 0

Recorded call for `CC[C@H]1OC(=O)[C@H](C)[C@@H](O[C@H]2C[C@@](C)(OC)[C@@H](O)[C@H](C)O2)[C@H](C)[C@@H](O[C@@H]2O[C@H](C)C[C@H](N(C)C)[C@H]2O)[C@](C)(O)C[C@@H](C)/C(=N/OCOCCOC)[C@H](C)[C@@H](O)[C@]1(C)O` ?
class 0

How did this test come out for COc1ccccc1OCC(O)COC(N)=O (centres undefined) ?
class 0

Identify the outcome logged in this assay for the compound shown: `CCCN(CCC)c1c([N+](=O)[O-])cc(C(F)(F)F)cc1[N+](=O)[O-]`
class 0

Record lookup: outcome of this test for `NNCc1ccccc1` ?
class 0

Record request — test call for COC1=CC23CCCN2CCc2cc4c(cc2C3C1O)OCO4 (centres undefined)
class 0
